So I've got a bunch of compounds here, and I need their pIC50 values.
TARGET_UNDER_TEST: PIK3CA (human) (UniProt P42336)
Sequence (P42336 whole entry, looked up): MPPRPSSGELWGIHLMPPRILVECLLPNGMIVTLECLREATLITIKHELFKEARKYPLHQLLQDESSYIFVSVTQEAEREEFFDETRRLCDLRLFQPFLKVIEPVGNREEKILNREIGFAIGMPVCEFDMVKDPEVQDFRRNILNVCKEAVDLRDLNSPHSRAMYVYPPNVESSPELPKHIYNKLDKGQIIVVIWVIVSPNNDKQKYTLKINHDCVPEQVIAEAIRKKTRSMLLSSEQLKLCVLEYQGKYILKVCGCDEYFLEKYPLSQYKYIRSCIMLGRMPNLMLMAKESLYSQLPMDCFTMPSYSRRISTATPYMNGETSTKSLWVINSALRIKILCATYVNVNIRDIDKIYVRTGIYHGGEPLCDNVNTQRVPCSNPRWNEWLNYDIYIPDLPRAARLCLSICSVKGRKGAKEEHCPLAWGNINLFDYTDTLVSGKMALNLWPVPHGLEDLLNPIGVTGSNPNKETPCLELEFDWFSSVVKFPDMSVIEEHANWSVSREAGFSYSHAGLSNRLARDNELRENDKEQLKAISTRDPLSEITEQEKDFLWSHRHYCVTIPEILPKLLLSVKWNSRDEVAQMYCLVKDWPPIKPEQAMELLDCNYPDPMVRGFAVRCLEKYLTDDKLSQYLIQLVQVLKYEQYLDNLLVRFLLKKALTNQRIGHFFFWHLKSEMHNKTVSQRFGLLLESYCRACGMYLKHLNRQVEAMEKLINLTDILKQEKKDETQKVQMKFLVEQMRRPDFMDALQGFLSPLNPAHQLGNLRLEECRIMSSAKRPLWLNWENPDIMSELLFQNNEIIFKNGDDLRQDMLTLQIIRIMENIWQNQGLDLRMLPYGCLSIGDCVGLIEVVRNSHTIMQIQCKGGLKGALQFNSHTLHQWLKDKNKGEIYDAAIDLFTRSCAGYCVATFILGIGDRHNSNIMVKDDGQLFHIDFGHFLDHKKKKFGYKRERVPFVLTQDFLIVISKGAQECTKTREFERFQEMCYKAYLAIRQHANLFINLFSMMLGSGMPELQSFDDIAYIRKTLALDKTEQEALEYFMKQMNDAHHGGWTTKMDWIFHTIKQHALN
Answers are plain numbers, as −log10 of the molar value.

Cc1ccc(S(=O)(=O)NC[C@H]2C[C@@H](O)C2)cc1-c1cncc(-c2cn(C)nc2C)n1    7.05

Challenge: API: value(readout= pIC50, system= PIK3CA (human) (UniProt P42336), query= Cc1ccc(S(=O)(=O)NC2CC3(CC(O)C3)C2)cc1-c1cncc(-c2cn(C)nc2C)n1 (configuration not stated) )
Response given: 7.40

---

TARGET_UNDER_TEST: PIK3CG (human)
METHOD_SUMMARY: Enzyme Assay
So I've got a bunch of compounds here, and I need their IC50 values.
Kindly report the value followed by its unit.

For every listed record, write down its IC50.
1. Cc1cc(-c2cncc(-c3cc(S(=O)(=O)NC[C@H]4C[C@@H](O)C4)ccc3C)n2)n(C)n1
2. Cc1ccc(S(=O)(=O)NC[C@H]2C[C@@H](O)C2)cc1-c1cncc(-c2cn(C)nc2C)n1
3. Cc1ccc(S(=O)(=O)NC2CC3(CC(O)C3)C2)cc1-c1cncc(-c2cn(C)nc2C)n1 (centres undefined)

Response given:
1. 38 nM
2. 11 nM
3. 13 nM

Challenge: Sample Cc1ccc(S(=O)(=O)N[C@H]2CC[C@H](O)CC2)cc1-c1cncc(-c2csc(CN3CCOCC3)c2)n1 — what was its IC50?
Response given: 6 nM

---

The following molecules have recorded IC50 on PIK3CB (Human) (UniProt P42338).
Sequence (P42338 whole entry, looked up): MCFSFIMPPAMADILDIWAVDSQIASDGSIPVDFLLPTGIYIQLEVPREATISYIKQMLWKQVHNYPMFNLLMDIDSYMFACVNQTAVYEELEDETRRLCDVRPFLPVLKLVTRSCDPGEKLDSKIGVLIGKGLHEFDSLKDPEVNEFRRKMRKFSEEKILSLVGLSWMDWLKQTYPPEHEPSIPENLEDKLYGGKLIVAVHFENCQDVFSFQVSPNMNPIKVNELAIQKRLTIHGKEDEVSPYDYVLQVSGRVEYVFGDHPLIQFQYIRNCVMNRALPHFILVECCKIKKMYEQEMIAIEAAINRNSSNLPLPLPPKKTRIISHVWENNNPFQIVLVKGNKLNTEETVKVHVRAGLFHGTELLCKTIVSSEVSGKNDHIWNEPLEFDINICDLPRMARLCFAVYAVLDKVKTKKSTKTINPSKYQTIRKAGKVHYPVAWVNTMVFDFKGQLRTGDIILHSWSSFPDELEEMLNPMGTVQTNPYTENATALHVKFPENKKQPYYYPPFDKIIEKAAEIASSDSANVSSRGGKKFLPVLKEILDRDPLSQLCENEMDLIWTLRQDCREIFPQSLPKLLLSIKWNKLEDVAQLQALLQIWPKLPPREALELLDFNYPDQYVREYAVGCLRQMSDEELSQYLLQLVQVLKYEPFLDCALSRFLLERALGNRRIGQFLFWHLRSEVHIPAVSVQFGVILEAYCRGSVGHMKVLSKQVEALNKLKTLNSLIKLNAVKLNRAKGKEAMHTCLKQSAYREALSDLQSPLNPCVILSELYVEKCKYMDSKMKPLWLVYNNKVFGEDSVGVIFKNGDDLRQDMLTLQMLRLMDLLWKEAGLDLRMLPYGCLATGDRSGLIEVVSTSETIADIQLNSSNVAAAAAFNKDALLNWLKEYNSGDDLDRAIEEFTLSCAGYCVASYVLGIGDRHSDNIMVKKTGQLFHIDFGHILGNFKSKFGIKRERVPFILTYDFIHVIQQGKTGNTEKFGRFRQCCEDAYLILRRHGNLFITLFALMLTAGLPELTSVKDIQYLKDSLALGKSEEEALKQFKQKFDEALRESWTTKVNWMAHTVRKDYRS
Numbers only, in nM.

Cc1ccc(S(=O)(=O)NC2CC3(CC(O)C3)C2)cc1-c1cncc(-c2cn(C)nc2C)n1 (stereo not drawn)    450

Challenge: Sample Cc1cc(-c2cncc(-c3cc(S(=O)(=O)NC[C@H]4C[C@@H](O)C4)ccc3C)n2)n(C)n1 — what was its IC50?
Response given: 1900

---

TARGET_UNDER_TEST: UniProt:P48736
Sequence (P48736 whole entry, looked up): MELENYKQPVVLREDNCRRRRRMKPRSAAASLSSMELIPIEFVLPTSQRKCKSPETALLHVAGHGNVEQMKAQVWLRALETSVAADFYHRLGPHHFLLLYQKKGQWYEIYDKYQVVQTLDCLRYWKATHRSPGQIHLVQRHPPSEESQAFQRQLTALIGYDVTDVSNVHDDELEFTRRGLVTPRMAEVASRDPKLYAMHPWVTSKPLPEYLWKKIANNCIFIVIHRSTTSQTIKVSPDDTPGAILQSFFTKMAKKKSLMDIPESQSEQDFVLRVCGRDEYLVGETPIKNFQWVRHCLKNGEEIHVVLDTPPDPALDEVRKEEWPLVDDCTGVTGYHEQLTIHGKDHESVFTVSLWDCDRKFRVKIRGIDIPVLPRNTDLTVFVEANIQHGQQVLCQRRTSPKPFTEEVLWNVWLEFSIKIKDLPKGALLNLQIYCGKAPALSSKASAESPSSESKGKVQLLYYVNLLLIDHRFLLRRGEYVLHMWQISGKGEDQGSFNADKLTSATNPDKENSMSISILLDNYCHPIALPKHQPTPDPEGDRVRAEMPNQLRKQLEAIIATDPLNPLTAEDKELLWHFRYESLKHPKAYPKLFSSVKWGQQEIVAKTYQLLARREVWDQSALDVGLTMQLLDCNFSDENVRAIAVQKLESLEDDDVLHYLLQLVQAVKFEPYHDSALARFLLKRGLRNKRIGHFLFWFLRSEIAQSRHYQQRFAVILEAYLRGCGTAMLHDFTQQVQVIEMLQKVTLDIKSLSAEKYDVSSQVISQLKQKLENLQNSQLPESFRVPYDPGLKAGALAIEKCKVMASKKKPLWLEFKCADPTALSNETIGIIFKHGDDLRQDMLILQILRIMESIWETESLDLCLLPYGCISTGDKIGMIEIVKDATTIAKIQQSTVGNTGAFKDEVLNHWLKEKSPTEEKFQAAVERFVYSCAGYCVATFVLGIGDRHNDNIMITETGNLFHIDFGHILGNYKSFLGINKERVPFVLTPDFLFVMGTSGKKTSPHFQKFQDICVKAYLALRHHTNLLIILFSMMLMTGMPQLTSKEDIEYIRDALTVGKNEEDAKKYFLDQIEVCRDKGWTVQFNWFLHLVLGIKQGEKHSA
METHOD_SUMMARY: Cell-Based Assay
ASSAY_SETUP: u937
So I've got a bunch of compounds here, and I need their IC50 values.
Give bare numbers, in nM.

Cc1ccc(S(=O)(=O)NC2CC3(CC(O)C3)C2)cc1-c1cncc(-c2cn(C)nc2C)n1 (centres undefined)    22
Cc1cc(-c2cncc(-c3cc(S(=O)(=O)NC[C@H]4C[C@@H](O)C4)ccc3C)n2)n(C)n1    122
Cc1ccc(S(=O)(=O)NC[C@H]2C[C@@H](O)C2)cc1-c1cncc(-c2cn(C)nc2C)n1    61

With those in mind, consider the next compound.
Challenge: Sample Cc1ccc(S(=O)(=O)N[C@H]2CC[C@H](O)CC2)cc1-c1cncc(-c2csc(CN3CCOCC3)c2)n1 — what was its IC50?
Response given: 122
